# Test System: Cynomolgus T cell receptor on cynomolgus primary T cells (cynomolgus monkey)
# Assay Procedure: cell-based or functional assay
Consider the cut-off 30%. If the recorded % Lysis, T cell mediated MOLM-13 cell killing, cynomolgus primary T cells, E:T 10:1 is strictly smaller, the label is t; if not, the label is f.

[in] Dear colleague, could you confirm whether % Lysis, T cell mediated MOLM-13 cell killing, cynomolgus primary T cells, E:T 10:1 of T017000637 (bispecific antibody, also called A0110056A10(E1D)-35GS-T0170056G05(L11V, G26W, K30Q, L34Y, M77T, K83R, V89L, F91Y, M95L, Y99W)-A) DVQLVESGGGLVQAGGSLRLSCAASGITSKINDMGWYRQTPGNYREWVASITATGTTNYRDSVKGRFTISRDNAKSTVYLQMNSLKPEDTTVYYCNTFPPISNFWGQGTLVTVSSGGGGSGGGGSGGGGSGGGGSGGGGSGGGGSGGGGSEVQLVESGGGVVQPGGSLRLSCVASWDVHQINFYGWYRQAPGKEREKVAHISIGDQTDYADSAKGRFTISRDESKNTVYLQMNSLRPEDTALYYCRALSRIWPYDYWGQGTLVTVSSA falls below 30%? Thanks.
[out] t

[in] Dear colleague, could you confirm whether % Lysis, T cell mediated MOLM-13 cell killing, cynomolgus primary T cells, E:T 10:1 of T017000628 (bispecific antibody) DVQLVESGGGVVQPGGSLRLSCVASYDVHKINFYGWYRQAPGKEREKVAHISIGDQTDYADSAKGRFTISRDESKNTVYLQMNSLRPEDTALYYCRALSKIWPYDYWGQGTLVTVSSGGGGSGGGGSGGGGSGGGGSGGGGSGGGGSGGGGSEVQLVESGGGLVQAGGSLRLSCAASGITSKINDMGWYRQTPGNYREWVASITATGTTNYRDSVKGRFTISRDNAKSTVYLQMNSLKPEDTTVYYCNTFPPISNFWGQGTLVTVSSA falls below 30%? Thanks.
[out] f

[in] Dear colleague, could you confirm whether % Lysis, T cell mediated MOLM-13 cell killing, cynomolgus primary T cells, E:T 10:1 of T017000642 (bispecific antibody) DVQLVESGGGVVQPGGSLRLSCVASWDVHKINFYTWYRQAPGKEREKVAHISIGDQTDYADSAKGRFTISRDESKNTVYLQMNSLRPEDTALYYCRALSKIWPYDYWGQGTLVTVSSGGGGSGGGGSGGGGSGGGGSGGGGSGGGGSGGGGSEVQLVESGGGLVQAGGSLRLSCAASGITSKINDMGWYRQTPGNYREWVASITATGTTNYRDSVKGRFTISRDNAKSTVYLQMNSLKPEDTTVYYCNTFPPISNFWGQGTLVTVSSA falls below 30%? Thanks.
[out] f

[in] Dear colleague, could you confirm whether % Lysis, T cell mediated MOLM-13 cell killing, cynomolgus primary T cells, E:T 10:1 of T017000639 (bispecific antibody) DVQLVESGGGVVQPGGSLRLSCVASWDVHKINFYTWYRQAPGKEREKVAHISIGDQTDYADSAKGRFTISRDESKNTVYLQMNSLRPEDTALYYCRALSRIWPYDYWGQGTLVTVSSGGGGSGGGGSGGGGSGGGGSGGGGSGGGGSGGGGSEVQLVESGGGLVQAGGSLRLSCAASGITSKINDMGWYRQTPGNYREWVASITATGTTNYRDSVKGRFTISRDNAKSTVYLQMNSLKPEDTTVYYCNTFPPISNFWGQGTLVTVSSA falls below 30%? Thanks.
[out] t

[in] Dear colleague, could you confirm whether % Lysis, T cell mediated MOLM-13 cell killing, cynomolgus primary T cells, E:T 10:1 of T017000128 (bispecific antibody) DVQLVESGGGLVQPGGSLRLSCVASGDVHKINFLGWYRQAPGKEREKVAHISIGDQTDYADSAKGRFTISRDESKNMVYLQMNSLKPEDTAVYFCRAFSRIYPYDYWGQGTLVTVSSGGGGSGGGGSGGGGSGGGGSGGGGSGGGGSGGGGSEVQLVESGGGLVQAGGSLRLSCAASGITSKINDMGWYRQTPGNYREWVASITATGTTNYRDSVKGRFTISRDNAKSTVYLQMNSLKPEDTTVYYCNTFPPISNFWGQGTLVTVSSA falls below 30%? Thanks.
[out] f

[in] Dear colleague, could you confirm whether % Lysis, T cell mediated MOLM-13 cell killing, cynomolgus primary T cells, E:T 10:1 of T017000643 (bispecific antibody, also called A0110056A10(E1D)-35GS-T0170056G05(L11V, G26W, L34Y, G35T, M77T, K83R, V89L, F91Y, F95L, R97K, Y99W)-A) DVQLVESGGGLVQAGGSLRLSCAASGITSKINDMGWYRQTPGNYREWVASITATGTTNYRDSVKGRFTISRDNAKSTVYLQMNSLKPEDTTVYYCNTFPPISNFWGQGTLVTVSSGGGGSGGGGSGGGGSGGGGSGGGGSGGGGSGGGGSEVQLVESGGGVVQPGGSLRLSCVASWDVHKINFYTWYRQAPGKEREKVAHISIGDQTDYADSAKGRFTISRDESKNTVYLQMNSLRPEDTALYYCRALSKIWPYDYWGQGTLVTVSSA falls below 30%? Thanks.
[out] t
